Measured Kd, listed per entry.
biological target: HLA-A*29:02; test: IEDB peptide-MHC binding, purified MHC/competitive/radioactivity; filed as Kd, often an IC50 or EC50 that approximates it; bounds were set here for any values at or beyond the usual limits of such assays; settings: source organism: Lassa virus Josiah
Dear colleague, please return just the value in nM, with no unit written.

Biosequence: FFQEVPHVI
Measured Target: HLA-A*29:02
Result Unit: nM
Kd: 508

# input Provide value of Kd for this record tested with HLA-A*29:02: `ICLSGDGWPY`
# output 371

# input Provide value of Kd for this record tested with HLA-A*29:02: `YCNYSKYWY`
# output 713

----------
target: HLA-B*15:17; experiment: IEDB peptide-MHC binding, purified MHC/competitive/fluorescence; filed as Kd, often an IC50 or EC50 that approximates it; bounds were set here for any values at or beyond the usual limits of such assays; details: source organism: Entamoeba histolytica HM-1:IMSS
Readout Name: Kd

# input Recorded Kd of `YLHIHPFKI` , please.
# output ≥ 20 µM

----------
biological target: HLA-A*29:02; test: IEDB peptide-MHC binding, purified MHC/competitive/fluorescence; filed as Kd, often an IC50 or EC50 that approximates it; bounds were set here for any values at or beyond the usual limits of such assays; settings: source organism: Rickettsia typhi str. Wilmington
Readout Name: Kd

# input Recorded Kd of `QLEVRSTEV` , please.
# output ≥ 20 µM

----------
target: HLA-C*06:02; experiment: IEDB peptide-MHC binding, purified MHC/direct/fluorescence; filed as Kd, often an IC50 or EC50 that approximates it; bounds were set here for any values at or beyond the usual limits of such assays; conditions: source organism: Listeria monocytogenes J0161
Readout Name: Kd

# input Recorded Kd of `YYVWMVQFF` , please.
# output ≥ 20 µM

----------
target: HLA-B*44:03; experiment: IEDB peptide-MHC binding, purified MHC/competitive/radioactivity; filed as Kd, often an IC50 or EC50 that approximates it; bounds were set here for any values at or beyond the usual limits of such assays; settings: source organism: Mammarenavirus juninense
Readout Name: Kd (µM)
Dear colleague, please return just the value in µM, with no unit written.

# input Provide value of Kd for this record tested with HLA-B*44:03: `HDLPLLCTL`
# output 19.1

----------
molecular target: HLA-A*02:12; assay: IEDB peptide-MHC binding, purified MHC/direct/fluorescence; filed as Kd, often an IC50 or EC50 that approximates it; bounds were set here for any values at or beyond the usual limits of such assays; settings: source organism: Vibrio vulnificus YJ016
Readout Name: Kd (nM)
Dear colleague, please return just the value in nM, with no unit written.

# input Recorded Kd of `VVYKEAKIK` , please.
# output 1990

----------
target: HLA-A*33:01; assay: IEDB peptide-MHC binding, purified MHC/competitive/radioactivity; filed as Kd, often an IC50 or EC50 that approximates it; bounds were set here for any values at or beyond the usual limits of such assays; settings: source organism: Dengue virus 4 Thailand/0348/1991
Readout Name: Kd (nM)
Dear colleague, please return just the value in nM, with no unit written.

# input Recorded Kd of `TVMAFHLSTR` , please.
# output 21.3

----------
molecular target: HLA-A*02:19; test: IEDB peptide-MHC binding, purified MHC/direct/fluorescence; filed as Kd, often an IC50 or EC50 that approximates it; bounds were set here for any values at or beyond the usual limits of such assays; conditions: source organism: Oran virus
Readout Name: Kd

# input Provide value of Kd for this record tested with HLA-A*02:19: `KPKALSEAF`
# output ≥ 20 µM

----------
target: HLA-A*31:01; test: IEDB peptide-MHC binding, purified MHC/competitive/radioactivity; filed as Kd, often an IC50 or EC50 that approximates it; bounds were set here for any values at or beyond the usual limits of such assays; details: source organism: Lymphocytic choriomeningitis virus (strain Armstrong)
Measured Kd, listed per entry.
Dear colleague, please return just the value in µM, with no unit written.

Biosequence: SCQGSDDIRK
Readout Name: Kd
Result: 9.93

Consider the record given below.
# input Recorded Kd of `VCLALTNSMK` , please.
# output 4.56

----------
biological target: HLA-A*29:02; assay: IEDB peptide-MHC binding, purified MHC/direct/fluorescence; filed as Kd, often an IC50 or EC50 that approximates it; bounds were set here for any values at or beyond the usual limits of such assays; settings: source organism: Mycobacterium tuberculosis str. Haarlem
pKd: −log10 of the molar value.
Readout Name: pKd

# input Recorded pKd of `RTNGASYAY` , please.
# output ≥ 9.00

----------
target: HLA-A*01:01; assay: IEDB peptide-MHC binding, purified MHC/competitive/radioactivity; filed as Kd, often an IC50 or EC50 that approximates it; bounds were set here for any values at or beyond the usual limits of such assays; settings: source organism: Mammarenavirus lassaense
Readout Name: pKd
Friendly reminder that pKd comes from taking -log10 of the concentration in mol/L.

# input Recorded pKd of `VDINLIPLI` , please.
# output 4.71

----------
biological target: HLA-A*69:01; assay: IEDB peptide-MHC binding, purified MHC/direct/fluorescence; filed as Kd, often an IC50 or EC50 that approximates it; bounds were set here for any values at or beyond the usual limits of such assays; settings: source organism: Brucella abortus 2308
Readout Name: Kd
Don't forget the unit after the value.

# input Recorded Kd of `YVDIIGLSV` , please.
# output 8.5 nM

----------
biological target: HLA-B*14:02; assay: IEDB peptide-MHC binding, purified MHC/competitive/fluorescence; filed as Kd, often an IC50 or EC50 that approximates it; bounds were set here for any values at or beyond the usual limits of such assays; settings: source organism: Rickettsia bellii OSU 85-389
pKd: −log10 of the molar value.
Readout Name: pKd

# input Recorded pKd of `EDFEIFYNL` , please.
# output ≤ 5.30

----------
biological target: HLA-A*68:02; assay: IEDB peptide-MHC binding, purified MHC/direct/fluorescence; filed as Kd, often an IC50 or EC50 that approximates it; bounds were set here for any values at or beyond the usual limits of such assays; conditions: source organism: Mammarenavirus machupoense
pKd: −log10 of the molar value.
Readout Name: pKd

# input Recorded pKd of `LITEQFLCY` , please.
# output ≤ 4.70

----------
biological target: HLA-B*15:09; assay: IEDB peptide-MHC binding, purified MHC/competitive/fluorescence; filed as Kd, often an IC50 or EC50 that approximates it; bounds were set here for any values at or beyond the usual limits of such assays; settings: source organism: Lyssavirus rabies
pKd: −log10 of the molar value.
Readout Name: pKd

# input Recorded pKd of `RQMKSGGRF` , please.
# output ≤ 4.70

----------
biological target: HLA-A*68:01; test: IEDB peptide-MHC binding, purified MHC/competitive/radioactivity; filed as Kd, often an IC50 or EC50 that approximates it; bounds were set here for any values at or beyond the usual limits of such assays; conditions: source organism: Vaccinia virus WR
pKd: −log10 of the molar value.
Lab note: compare pKd against 6. Equal or greater, write label 1. Smaller, write label 0.

Biosequence: KAIEKDRLDK
Measured Target: HLA-A*68:01
Group Label: label 0
//
Biosequence: NVHEHINDQK
Measured Target: HLA-A*68:01
Group Label: label 1
//
Biosequence: HINTLIQYR
Measured Target: HLA-A*68:01
Group Label: label 1
//
Biosequence: VTRKCPQKK
Measured Target: HLA-A*68:01
Group Label: label 0
//
Biosequence: VVVQIDPEY
Measured Target: HLA-A*68:01
Group Label: label 1

# input Evaluate `ESIEDKFDY` : pKd at minimum 6?
# output label 0

# input Evaluate `CAVHLIIYY` : pKd at minimum 6?
# output label 1

# input Evaluate `QFNFNGHTY` : pKd at minimum 6?
# output label 1

# input Evaluate `SLTILDDNLY` : pKd at minimum 6?
# output label 0

# input Evaluate `DIEIGNFYIR` : pKd at minimum 6?
# output label 1

----------
target: HLA-A*02:16; assay: IEDB peptide-MHC binding, purified MHC/competitive/fluorescence; filed as Kd, often an IC50 or EC50 that approximates it; bounds were set here for any values at or beyond the usual limits of such assays; conditions: source organism: Burkholderia pseudomallei K96243
pKd: −log10 of the molar value.
Readout Name: pKd

# input Recorded pKd of `DELWRGLLA` , please.
# output ≤ 4.70

----------
molecular target: HLA-B*08:01; assay: IEDB peptide-MHC binding, purified MHC/competitive/fluorescence; filed as Kd, often an IC50 or EC50 that approximates it; bounds were set here for any values at or beyond the usual limits of such assays; conditions: source organism: Rickettsia bellii OSU 85-389
pKd: −log10 of the molar value.
Readout Name: pKd

# input Recorded pKd of `EDFEIFYNL` , please.
# output ≤ 5.30

----------
target: HLA-B*57:01; assay: IEDB peptide-MHC binding, purified MHC/competitive/radioactivity; filed as Kd, often an IC50 or EC50 that approximates it; bounds were set here for any values at or beyond the usual limits of such assays; conditions: source organism: Dengue virus 4 Philippines/H241/1956
Readout Name: pKd
Friendly reminder that pKd comes from taking -log10 of the concentration in mol/L.

# input Recorded pKd of `GASKRSWPLN` , please.
# output 6.97
